molecular target: human MAOB (Homo sapiens, UniProt P27338)
Sequence (P27338 whole entry): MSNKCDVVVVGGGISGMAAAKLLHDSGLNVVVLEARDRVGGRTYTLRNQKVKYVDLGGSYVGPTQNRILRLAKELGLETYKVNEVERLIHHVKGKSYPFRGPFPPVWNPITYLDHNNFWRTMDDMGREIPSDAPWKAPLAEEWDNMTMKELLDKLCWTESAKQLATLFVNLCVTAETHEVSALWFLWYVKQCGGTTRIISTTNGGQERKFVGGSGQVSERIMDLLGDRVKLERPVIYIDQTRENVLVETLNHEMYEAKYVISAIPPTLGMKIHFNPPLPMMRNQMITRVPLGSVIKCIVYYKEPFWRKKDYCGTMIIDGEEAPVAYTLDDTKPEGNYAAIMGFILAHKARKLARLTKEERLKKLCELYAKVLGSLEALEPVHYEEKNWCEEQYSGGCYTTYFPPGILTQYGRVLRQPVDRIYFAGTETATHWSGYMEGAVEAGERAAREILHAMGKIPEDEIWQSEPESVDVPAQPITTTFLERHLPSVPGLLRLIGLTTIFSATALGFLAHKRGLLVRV
pIC50: −log10 of the molar value.
quantity: pIC50

C#CCN(C)Cc1ccc(Cn2nnc3c(Sc4nc5ccccc5o4)ncnc32)cc1 = 6.74
c1ccc(Cn2nnc3c(Sc4nc5ccccc5o4)ncnc32)cc1 [VAS2870, reference compound] = < 4.00

Field: next compound
Task item: Fill in reported pIC50 for this entry: CCCNC(=O)c1ccc(Cn2nnc3c(Sc4nc5ccccc5o4)ncnc32)cc1
Reply: < 4.00

----------
system: dehydrogenase domain of csNOX5; test: NADPH depletion assay on csNOX5 dehydrogenase domain; format: biochemical, Cylindrospermum stagnale; conditions: 10 μM inhibitor; 1 μM purified protein, 250 μM NADPH
Binary classification by % INHIBITION csNOX5 DEHYDROGENASE DOMAIN, with 40% as an inclusive lower bound for true; all other cases are false.

Task item: Could you verify whether the entry Nc1ncnc2c1nnn2Cc1ccccc1 [Compound 4] shows % INHIBITION csNOX5 DEHYDROGENASE DOMAIN of no less than 40%?
Reply: false

Task item: Could you verify whether the entry C#CCN(C)Cc1ccc(Cn2nnc3c(Sc4nc5ccccc5o4)ncnc32)cc1 [Compound 9a] shows % INHIBITION csNOX5 DEHYDROGENASE DOMAIN of no less than 40%?
Reply: true

Task item: Could you verify whether the entry CC(C)(C)OC(=O)N1CCN(c2ncnc3c2nnn3Cc2ccccc2)CC1 [Compound 5] shows % INHIBITION csNOX5 DEHYDROGENASE DOMAIN of no less than 40%?
Reply: false

Task item: Could you verify whether the entry C#CCNC(=O)c1ccc(Cn2nnc3c(Sc4nc5ccccc5o4)ncnc32)cc1 [Compound 8b] shows % INHIBITION csNOX5 DEHYDROGENASE DOMAIN of no less than 40%?
Reply: true

Task item: Could you verify whether the entry C=CC(=O)N1CCN(c2ncnc3c2nnn3Cc2ccccc2)CC1 [Compound 7a] shows % INHIBITION csNOX5 DEHYDROGENASE DOMAIN of no less than 40%?
Reply: false

Task item: Could you verify whether the entry Cl.c1ccc(Cn2nnc3c(N4CCNCC4)ncnc32)cc1 [Compound 6] shows % INHIBITION csNOX5 DEHYDROGENASE DOMAIN of no less than 40%?
Reply: false

Task item: Could you verify whether the entry C=CC(=O)Nc1ccc(Sc2ncnc3c2nnn3Cc2ccccc2)cc1 [Compound 7d] shows % INHIBITION csNOX5 DEHYDROGENASE DOMAIN of no less than 40%?
Reply: false

Data origin, for the record: paper PMC11956017
